Ref: ChEMBL document CHEMBL3813596

pEC50 values, listed per item
target: UniProt:Q8BFU7; experiment: Agonist activity at mouse P2Y10 receptor expressed in HEK293A cells after 1.5 hrs by alkaline phosphatase tagged-TGFalpha shedding assay; assay type: cell-based, HEK293-A; conditions: read-out: EC50
Sequence (Q8BFU7 whole entry): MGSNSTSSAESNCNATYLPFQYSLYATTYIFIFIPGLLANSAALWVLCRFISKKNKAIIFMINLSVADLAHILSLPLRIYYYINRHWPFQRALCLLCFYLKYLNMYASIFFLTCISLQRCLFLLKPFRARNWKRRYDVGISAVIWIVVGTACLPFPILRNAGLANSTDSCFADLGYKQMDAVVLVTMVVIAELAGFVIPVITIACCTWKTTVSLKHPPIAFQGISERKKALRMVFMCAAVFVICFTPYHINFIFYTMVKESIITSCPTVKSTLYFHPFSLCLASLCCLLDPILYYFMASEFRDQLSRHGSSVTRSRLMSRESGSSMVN
pEC50: −log10 of the molar value.

# example entries with known answers
| molecule | pEC50 |
| --- | --- |
| N[C@@H](COP(=O)(O)OC[C@H]1OCCC[C@H]1OC(=O)CCc1cccc(OCc2cccc(Oc3ccccc3)c2)c1)C(=O)O | < 6.00 |
| CCCCCCCCCCCOc1ccccc1CCC(=O)O[C@H]1C=CCO[C@@H]1COP(=O)(O)OCC(N)C(=O)O (single isomer, unassigned) | < 6.00 |
| CCCCCCCCCCCOc1ccccc1CCC(=O)OC[C@H]1OCCC[C@H]1OP(=O)(O)OC[C@H](N)C(=O)O | 6.33 |
| CCCCCCCC/C=C\CCCCCCCC(=O)OC[C@@H]1OCC=C[C@H]1OP(=O)(O)OC[C@@H](N)C(=O)O (single isomer, unassigned) | 6.35 |
| N[C@@H](COP(=O)(O)OC[C@H]1OCCC[C@H]1OC(=O)CCc1ccccc1OCc1cccc(Oc2ccccc2)c1)C(=O)O | < 6.00 |

Q) Would you kindly share the measured pEC50 for `CCCCCCCCCCCOc1ccccc1CCC(=O)OCc1ccc(OP(=O)(O)OC[C@H](N)C(=O)O)cc1` ?
A) < 6.00

Q) Would you kindly share the measured pEC50 for `N[C@@H](COP(=O)(O)O[C@@H]1CCCO[C@@H]1COC(=O)CCc1cccc(OCc2cccc(Oc3ccccc3)c2)c1)C(=O)O` ?
A) < 6.00

====

target: Probable G-protein coupled receptor 34 (Mus musculus); assay: Agonist activity at mouse GPR34 expressed in HEK293A cells cotransfected with chimeric Galphaq/il after 1.5 hrs by alkaline phosphatase tagged-TGFalpha shedding assay; type: cell-based, HEK293-A; conditions: read-out: EC50
Sequence (Q9R1K6 whole entry): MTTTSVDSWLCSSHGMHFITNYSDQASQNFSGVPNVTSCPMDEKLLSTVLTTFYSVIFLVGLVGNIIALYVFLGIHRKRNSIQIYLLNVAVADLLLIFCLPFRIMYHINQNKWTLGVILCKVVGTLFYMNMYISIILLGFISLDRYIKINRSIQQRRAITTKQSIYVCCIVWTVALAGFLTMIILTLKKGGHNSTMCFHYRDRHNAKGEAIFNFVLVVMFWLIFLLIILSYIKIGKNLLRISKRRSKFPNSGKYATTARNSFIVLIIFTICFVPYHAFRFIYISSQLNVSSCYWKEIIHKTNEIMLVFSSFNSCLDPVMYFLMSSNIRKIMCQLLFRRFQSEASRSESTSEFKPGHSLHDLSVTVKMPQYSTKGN
measurement kind: EC50 (nM)

| molecule | reading unit | EC50 |
| --- | --- | --- |
| CCCCCCCC/C=C\CCCCCCCC(=O)OC[C@@H]1OCCC[C@H]1OP(=O)(O)OC[C@@H](N)C(=O)O (single isomer, unassigned) | nM | 100 |

A: N[C@@H](COP(=O)(O)OC[C@H]1OCCC[C@H]1OC(=O)CCc1ccccc1OCc1cccc(Oc2ccc(Cl)cc2)c1)C(=O)O
B: Cc1ccc(Oc2cccc(COc3ccccc3CCC(=O)O[C@@H]3CCCO[C@@H]3COP(=O)(O)OC[C@H](N)C(=O)O)c2)cc1
Q) Task for the reader: decide whether A or B has the larger EC50. Kindly state the label of the option you pick.
A) A

====

target: Probable G-protein coupled receptor 34 (Mus musculus) (UniProt Q9R1K6); assay: Intrinsic activity at mouse GPR34 expressed in HEK293A cells cotransfected with chimeric Galphaq/il after 1.5 hrs by alkaline phosphatase tagged-TGFalpha shedding assay relative to O-(Hydroxy(((2R,3R)-2-(((3-(2-((3-phenoxybenzyl)oxy)phenyl)-propanoyl)oxy)methyl)tetrahydro-2H-pyran-3-yl)oxy)phosphoryl)-L-serine; assay type: cell-based; settings: HEK293-A
Sequence (Q9R1K6 whole entry): as above
The source made the active and inactive calls. The calls are words filed in the database; no cut-off is given here.
measurement kind: Intrinsic activity

| molecule | experimental target | value |
| --- | --- | --- |
| N[C@@H](COP(=O)(O)OC[C@H]1OCC=C[C@H]1OC(=O)CCc1ccccc1OCc1cccc(Oc2ccccc2)c1)C(=O)O | Probable G-protein coupled receptor 34 (Mus musculus) (UniProt Q9R1K6) | 0.86 |
| N[C@@H](COP(=O)(O)OC[C@H]1OCCC[C@@H]1OC(=O)CCc1ccccc1OCc1cccc(Oc2ccccc2)c1)C(=O)O | Probable G-protein coupled receptor 34 (Mus musculus) (UniProt Q9R1K6) | inactive |
| CCCCCCCC/C=C\CCCCCCCC(=O)OC[C@@H]1OCCC[C@H]1OP(=O)(O)OC[C@@H](N)C(=O)O (single isomer, unassigned) | Probable G-protein coupled receptor 34 (Mus musculus) (UniProt Q9R1K6) | 1.03 |
| N[C@@H](COP(=O)(O)OC[C@H]1OCCC[C@H]1OC(=O)CCc1ccccc1OCc1cccc(Oc2ccccc2)c1)C(=O)O | Probable G-protein coupled receptor 34 (Mus musculus) (UniProt Q9R1K6) | 0.85 |

Q) Would you kindly share the measured Intrinsic activity for `CCCCCCCCCCCOc1ccccc1CCC(=O)OCc1ccccc1OP(=O)(O)OC[C@H](N)C(=O)O` ?
A) 0.2

Q) Would you kindly share the measured Intrinsic activity for CCCCCCCC/C=C\CCCCCCCC(=O)OC[C@@H]1OCCC[C@@H]1OP(=O)(O)OC[C@@H](N)C(=O)O (single isomer, unassigned) ?
A) 0.53

Q) Would you kindly share the measured Intrinsic activity for CCCCCCCC/C=C\CCCCCCCC(=O)OC[C@@H]1OCC=C[C@H]1OP(=O)(O)OC[C@@H](N)C(=O)O (single isomer, unassigned) ?
A) inactive
